Target: mICE (Mus musculus, UniProt P29452)
Assay: Dissociation constant Ki and irreversible rate constant k3 for irreversible inhibitors (ICE)
Type: biochemical
Conditions: continuous assay 60 min, reaction initiated by adding enzyme to substrate-inhibitor mixture
property label: Ki (nM)

compound=C[C@H](NC(=O)C(=O)Nc1ccccc1C(C)(C)C)C(=O)N[C@@H](CC(=O)O)C(=O)COc1ccccc1F quantitative_readout=31
compound=CC(C)[C@H](NC(=O)C(=O)Nc1ccccn1)C(=O)N[C@@H](CC(=O)O)C(=O)COc1c(F)c(F)cc(F)c1F quantitative_readout=206
compound="C[C@H](NC(=O)C(=O)Nc1ccccc1C(C)(C)C)C(=O)N[C@@H](CC(=O)O)C(=O)COP(=O)(c1ccccc1)c1ccccc1 [Example 32]" quantitative_readout=98
compound=CC(C)[C@H](NC(=O)C(=O)Nc1cccc2ccccc12)C(=O)N[C@@H](CC(=O)O)C(=O)COc1c(F)c(F)cc(F)c1F quantitative_readout=5.7
compound=COc1ccccc1NC(=O)C(=O)N[C@H](C(=O)N[C@@H](CC(=O)O)C(=O)COc1c(F)c(F)cc(F)c1F)C(C)C quantitative_readout=6
compound="C[C@H](NC(=O)C(=O)Nc1ccccc1Cl)C(=O)N[C@@H](CC(=O)O)C(=O)COC(=O)c1c(Cl)cccc1Cl [Example 58]" quantitative_readout=54
compound=CC(C)[C@H](NC(=O)C(=O)Nc1cccc2ccccc12)C(=O)N[C@@H](CC(=O)O)C(=O)COc1ccnc(C(F)(F)F)n1 quantitative_readout=7.2
compound="C[C@H](NC(=O)C(=O)Nc1ccccc1Cl)C(=O)N[C@@H](CC(=O)O)C(=O)COP(=O)(c1ccccc1)c1ccccc1 [Example 41]" quantitative_readout=140
compound=CC(C)[C@H](NC(=O)C(=O)Nc1ccc(F)cc1)C(=O)N[C@@H](CC(=O)O)C(=O)COc1c(F)c(F)cc(F)c1F quantitative_readout=16
compound=CC(C)[C@H](NC(=O)C(=O)Nc1cnccn1)C(=O)N[C@@H](CC(=O)O)C(=O)COc1c(F)c(F)cc(F)c1F quantitative_readout=5.3
compound="C[C@H](NC(=O)C(=O)Nc1ccccc1I)C(=O)N[C@@H](CC(=O)O)C(=O)COC(=O)c1c(Cl)cccc1Cl [Example 75]" quantitative_readout=13
compound=CC(C)[C@H](NC(=O)C(=O)Nc1nc2ccccc2[nH]1)C(=O)N[C@@H](CC(=O)O)C(=O)COc1c(F)c(F)cc(F)c1F quantitative_readout=359
compound="CC(C)[C@H](NC(=O)C(=O)NC1CCCc2ccccc21)C(=O)N[C@@H](CC(=O)O)C(=O)COc1c(F)c(F)cc(F)c1F (stereo partly shown)" quantitative_readout=4.5

###

Biological target: MCH-2 (Homo sapiens, UniProt P55212)
Sequence (P55212 24-179 limits assumed): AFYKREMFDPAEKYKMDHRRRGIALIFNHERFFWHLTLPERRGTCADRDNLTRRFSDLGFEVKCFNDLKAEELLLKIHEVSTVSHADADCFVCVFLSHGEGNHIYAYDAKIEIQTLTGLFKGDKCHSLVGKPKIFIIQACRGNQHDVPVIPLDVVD
Sequence (P55212 194-293 limits assumed): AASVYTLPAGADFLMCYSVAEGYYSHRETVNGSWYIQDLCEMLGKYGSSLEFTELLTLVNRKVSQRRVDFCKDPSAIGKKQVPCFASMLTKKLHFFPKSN
Assay: Dissociation constant Ki and irreversible rate constant k3 for irreversible inhibitors (Mch2)
Assay type: biochemical
Conditions: continuous assay 60 min, reaction initiated by adding enzyme to substrate-inhibitor mixture
Quick reference for Ki among some compounds
property label: Ki (nM)

compound="C[C@H](NC(=O)C(=O)Nc1ccccc1I)C(=O)N[C@@H](CC(=O)O)C(=O)COC(=O)c1c(Cl)cccc1Cl [Example 75]" tested_target="MCH-2 (Homo sapiens, UniProt P55212)" quantitative_readout=34
compound="C[C@H](NC(=O)C(=O)Nc1ccccc1C(C)(C)C)C(=O)N[C@@H](CC(=O)O)C(=O)COP(=O)(c1ccccc1)c1ccccc1 [Example 32]" tested_target="MCH-2 (Homo sapiens, UniProt P55212)" quantitative_readout=16
compound="C[C@H](NC(=O)C(=O)Nc1ccccc1C(C)(C)C)C(=O)N[C@@H](CC(=O)O)C(=O)COC(=O)c1c(Cl)cccc1Cl [Example 76]" tested_target="MCH-2 (Homo sapiens, UniProt P55212)" quantitative_readout=235

###

Target: mICE (Mus musculus)
Sequence (P29452 123-296 limits assumed): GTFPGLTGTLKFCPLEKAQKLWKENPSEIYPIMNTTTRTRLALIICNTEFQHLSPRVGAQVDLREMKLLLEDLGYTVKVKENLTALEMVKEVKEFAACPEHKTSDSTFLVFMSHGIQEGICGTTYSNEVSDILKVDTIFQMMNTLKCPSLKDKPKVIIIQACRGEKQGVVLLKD
Sequence (P29452 315-402 limits assumed): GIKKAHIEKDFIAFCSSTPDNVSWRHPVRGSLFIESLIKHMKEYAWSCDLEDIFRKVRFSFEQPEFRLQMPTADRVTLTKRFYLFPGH
Assay: Dissociation constant Ki and irreversible rate constant k3 for irreversible inhibitors (ICE)
Assay type: biochemical
Conditions: continuous assay 60 min, reaction initiated by adding enzyme to substrate-inhibitor mixture
Where a SMILES comes first, the peptide text is derived from it. The star is where a group is joined. Cbz = O=C(OCc1ccccc1)*; CH2F = FC*
Quick reference for mICE k3/Ki among some molecules
property label: mICE k3/Ki

molecule=CC(C)[C@H](NC(=O)C(=O)Nc1ccccc1C(C)(C)C)C(=O)N[C@@H](CC(=O)O)C(=O)COc1c(F)c(F)cc(F)c1F tested_target="mICE (Mus musculus)" property_label="mICE k3/Ki" result="2,052,000 moles^−1 seconds^−1"
molecule="C[C@H](NC(=O)C(=O)Nc1ccccc1I)C(=O)N[C@@H](CC(=O)O)C(=O)COC(=O)c1c(Cl)cccc1Cl [Example 38]" tested_target="mICE (Mus musculus)" property_label="mICE k3/Ki" result="90,100 moles^−1 seconds^−1"
molecule=C[C@H](NC(=O)C(=O)Nc1cccc2c1CCCC2)C(=O)N[C@@H](CC(=O)O)C(=O)COc1c(F)c(F)cc(F)c1F tested_target="mICE (Mus musculus)" property_label="mICE k3/Ki" result="22,000 moles^−1 seconds^−1"
molecule="C[C@H](NC(=O)C(=O)Nc1ccccc1C(C)(C)C)C(=O)N[C@@H](CC(=O)O)C(=O)COP(=O)(c1ccccc1)c1ccccc1 [Example 32]" tested_target="mICE (Mus musculus)" property_label="mICE k3/Ki" result="159,000 moles^−1 seconds^−1"
molecule=C[C@H](NC(=O)C(=O)Nc1ccccc1I)C(=O)N[C@@H](CC(=O)O)C(=O)COP(=O)(c1ccccc1)c1ccccc1 tested_target="mICE (Mus musculus)" property_label="mICE k3/Ki" result="36,300 moles^−1 seconds^−1"
molecule="CC(NC(=O)C(NC(=O)OCc1ccccc1)C(C)C)C(=O)NC(CC(=O)O)C(=O)CF (stereo not drawn) [refer., Cbz-ValAlaAsp-CH2F, reference compound] (Cbz-Val-Ala-Asp-CH2F; configuration not given here)" tested_target="mICE (Mus musculus)" property_label="mICE k3/Ki" result="214,000 moles^−1 seconds^−1"
molecule=CC(C)[C@H](NC(=O)C(=O)Nc1ccccc1F)C(=O)N[C@@H](CC(=O)O)C(=O)COc1c(F)c(F)cc(F)c1F tested_target="mICE (Mus musculus)" property_label="mICE k3/Ki" result="58,500 moles^−1 seconds^−1"
molecule="C[C@H](NC(=O)C(=O)Nc1ccccc1C(C)(C)C)C(=O)N[C@@H](CC(=O)O)C(=O)COP(=O)(c1ccccc1)c1ccccc1 [Example 47]" tested_target="mICE (Mus musculus)" property_label="mICE k3/Ki" result="625,000 moles^−1 seconds^−1"
molecule=C[C@H](NC(=O)C(=O)Nc1cc(C(C)(C)C)ccc1C(C)(C)C)C(=O)N[C@@H](CC(=O)O)C(=O)COP(=O)(c1ccccc1)c1ccccc1 tested_target="mICE (Mus musculus)" property_label="mICE k3/Ki" result="211,000 moles^−1 seconds^−1"
molecule="C[C@H](NC(=O)C(=O)Nc1ccccc1C(C)(C)C)C(=O)N[C@@H](CC(=O)O)C(=O)COC(=O)c1c(Cl)cccc1Cl [Example 76]" tested_target="mICE (Mus musculus)" property_label="mICE k3/Ki" result="537,000 moles^−1 seconds^−1"
molecule=C[C@H](NC(=O)C(=O)Nc1ccccc1-c1ccccc1)C(=O)N[C@@H](CC(=O)O)C(=O)COP(=O)(c1ccccc1)c1ccccc1 tested_target="mICE (Mus musculus)" property_label="mICE k3/Ki" result="345,000 moles^−1 seconds^−1"
molecule=CC(C)[C@H](NC(=O)C(=O)Nc1ccccc1Cc1ccccc1)C(=O)N[C@@H](CC(=O)O)C(=O)COc1c(F)c(F)cc(F)c1F tested_target="mICE (Mus musculus)" property_label="mICE k3/Ki" result="344,000 moles^−1 seconds^−1"
molecule=C[C@H](NC(=O)C(=O)Nc1ccccc1-c1ccccc1)C(=O)N[C@@H](CC(=O)O)C(=O)COc1ccccc1F tested_target="mICE (Mus musculus)" property_label="mICE k3/Ki" result="167,000 moles^−1 seconds^−1"
molecule=C[C@H](NC(=O)C(=O)Nc1cc(C(C)(C)C)ccc1C(C)(C)C)C(=O)N[C@@H](CC(=O)O)C(=O)COC(=O)c1c(Cl)cccc1Cl tested_target="mICE (Mus musculus)" property_label="mICE k3/Ki" result="289,000 moles^−1 seconds^−1"
molecule=C[C@H](NC(=O)C(=O)Nc1cc(C(C)(C)C)ccc1C(C)(C)C)C(=O)N[C@@H](CC(=O)O)C(=O)COc1c(F)c(F)cc(F)c1F tested_target="mICE (Mus musculus)" property_label="mICE k3/Ki" result="195,000 moles^−1 seconds^−1"
molecule="C[C@H](NC(=O)C(=O)Nc1ccccc1Cl)C(=O)N[C@@H](CC(=O)O)C(=O)COP(=O)(c1ccccc1)c1ccccc1 [Example 57]" tested_target="mICE (Mus musculus)" property_label="mICE k3/Ki" result="1,980,000 moles^−1 seconds^−1"
molecule=C[C@H](NC(=O)C(=O)Nc1ccc(F)cc1)C(=O)N[C@@H](CC(=O)O)C(=O)COP(=O)(c1ccccc1)c1ccccc1 tested_target="mICE (Mus musculus)" property_label="mICE k3/Ki" result="956,000 moles^−1 seconds^−1"
molecule=C[C@H](NC(=O)C(=O)NCc1ccccc1)C(=O)N[C@@H](CC(=O)O)C(=O)COc1c(F)c(F)cc(F)c1F tested_target="mICE (Mus musculus)" property_label="mICE k3/Ki" result="13,900 moles^−1 seconds^−1"
molecule=CC(C)[C@H](NC(=O)C(=O)Nc1nc2ccccc2[nH]1)C(=O)N[C@@H](CC(=O)O)C(=O)COc1c(F)c(F)cc(F)c1F tested_target="mICE (Mus musculus)" property_label="mICE k3/Ki" result="27,400 moles^−1 seconds^−1"
molecule=CC(C)[C@H](NC(=O)C(=O)Nc1ccccn1)C(=O)N[C@@H](CC(=O)O)C(=O)COc1c(F)c(F)cc(F)c1F tested_target="mICE (Mus musculus)" property_label="mICE k3/Ki" result="36,000 moles^−1 seconds^−1"
molecule="C[C@H](NC(=O)C(=O)Nc1cccc2c1CCCC2)C(=O)N[C@@H](CC(=O)O)C(=O)COP(=O)(c1ccccc1)c1ccccc1 [Example 61]" tested_target="mICE (Mus musculus)" property_label="mICE k3/Ki" result="315,000 moles^−1 seconds^−1"
molecule=CC(C)[C@H](NC(=O)C(=O)Nc1cc(C(C)(C)C)ccc1C(C)(C)C)C(=O)N[C@@H](CC(=O)O)C(=O)COc1c(F)c(F)cc(F)c1F tested_target="mICE (Mus musculus)" property_label="mICE k3/Ki" result="767,000 moles^−1 seconds^−1"
molecule="CC(C)[C@H](NC(=O)C(=O)NC1CCCc2ccccc21)C(=O)N[C@@H](CC(=O)O)C(=O)COc1c(F)c(F)cc(F)c1F (stereo partly shown)" tested_target="mICE (Mus musculus)" property_label="mICE k3/Ki" result="2,320,000 moles^−1 seconds^−1"
molecule=C[C@H](NC(=O)C(=O)Nc1ccccc1F)C(=O)N[C@@H](CC(=O)O)C(=O)COC(=O)c1c(Cl)cccc1Cl tested_target="mICE (Mus musculus)" property_label="mICE k3/Ki" result="172,000 moles^−1 seconds^−1"
molecule="C[C@H](NC(=O)C(=O)Nc1ccccc1Cl)C(=O)N[C@@H](CC(=O)O)C(=O)COC(=O)c1c(Cl)cccc1Cl [Example 42]" tested_target="mICE (Mus musculus)" property_label="mICE k3/Ki" result="1,940,000 moles^−1 seconds^−1"
